Numbers sourced from paper PMC3813431.

Target: ryanodine receptor, isoform 1 (RyR1) (Oncorhynchus mykiss)
Sequence (A0A8C7UX14 1-5031): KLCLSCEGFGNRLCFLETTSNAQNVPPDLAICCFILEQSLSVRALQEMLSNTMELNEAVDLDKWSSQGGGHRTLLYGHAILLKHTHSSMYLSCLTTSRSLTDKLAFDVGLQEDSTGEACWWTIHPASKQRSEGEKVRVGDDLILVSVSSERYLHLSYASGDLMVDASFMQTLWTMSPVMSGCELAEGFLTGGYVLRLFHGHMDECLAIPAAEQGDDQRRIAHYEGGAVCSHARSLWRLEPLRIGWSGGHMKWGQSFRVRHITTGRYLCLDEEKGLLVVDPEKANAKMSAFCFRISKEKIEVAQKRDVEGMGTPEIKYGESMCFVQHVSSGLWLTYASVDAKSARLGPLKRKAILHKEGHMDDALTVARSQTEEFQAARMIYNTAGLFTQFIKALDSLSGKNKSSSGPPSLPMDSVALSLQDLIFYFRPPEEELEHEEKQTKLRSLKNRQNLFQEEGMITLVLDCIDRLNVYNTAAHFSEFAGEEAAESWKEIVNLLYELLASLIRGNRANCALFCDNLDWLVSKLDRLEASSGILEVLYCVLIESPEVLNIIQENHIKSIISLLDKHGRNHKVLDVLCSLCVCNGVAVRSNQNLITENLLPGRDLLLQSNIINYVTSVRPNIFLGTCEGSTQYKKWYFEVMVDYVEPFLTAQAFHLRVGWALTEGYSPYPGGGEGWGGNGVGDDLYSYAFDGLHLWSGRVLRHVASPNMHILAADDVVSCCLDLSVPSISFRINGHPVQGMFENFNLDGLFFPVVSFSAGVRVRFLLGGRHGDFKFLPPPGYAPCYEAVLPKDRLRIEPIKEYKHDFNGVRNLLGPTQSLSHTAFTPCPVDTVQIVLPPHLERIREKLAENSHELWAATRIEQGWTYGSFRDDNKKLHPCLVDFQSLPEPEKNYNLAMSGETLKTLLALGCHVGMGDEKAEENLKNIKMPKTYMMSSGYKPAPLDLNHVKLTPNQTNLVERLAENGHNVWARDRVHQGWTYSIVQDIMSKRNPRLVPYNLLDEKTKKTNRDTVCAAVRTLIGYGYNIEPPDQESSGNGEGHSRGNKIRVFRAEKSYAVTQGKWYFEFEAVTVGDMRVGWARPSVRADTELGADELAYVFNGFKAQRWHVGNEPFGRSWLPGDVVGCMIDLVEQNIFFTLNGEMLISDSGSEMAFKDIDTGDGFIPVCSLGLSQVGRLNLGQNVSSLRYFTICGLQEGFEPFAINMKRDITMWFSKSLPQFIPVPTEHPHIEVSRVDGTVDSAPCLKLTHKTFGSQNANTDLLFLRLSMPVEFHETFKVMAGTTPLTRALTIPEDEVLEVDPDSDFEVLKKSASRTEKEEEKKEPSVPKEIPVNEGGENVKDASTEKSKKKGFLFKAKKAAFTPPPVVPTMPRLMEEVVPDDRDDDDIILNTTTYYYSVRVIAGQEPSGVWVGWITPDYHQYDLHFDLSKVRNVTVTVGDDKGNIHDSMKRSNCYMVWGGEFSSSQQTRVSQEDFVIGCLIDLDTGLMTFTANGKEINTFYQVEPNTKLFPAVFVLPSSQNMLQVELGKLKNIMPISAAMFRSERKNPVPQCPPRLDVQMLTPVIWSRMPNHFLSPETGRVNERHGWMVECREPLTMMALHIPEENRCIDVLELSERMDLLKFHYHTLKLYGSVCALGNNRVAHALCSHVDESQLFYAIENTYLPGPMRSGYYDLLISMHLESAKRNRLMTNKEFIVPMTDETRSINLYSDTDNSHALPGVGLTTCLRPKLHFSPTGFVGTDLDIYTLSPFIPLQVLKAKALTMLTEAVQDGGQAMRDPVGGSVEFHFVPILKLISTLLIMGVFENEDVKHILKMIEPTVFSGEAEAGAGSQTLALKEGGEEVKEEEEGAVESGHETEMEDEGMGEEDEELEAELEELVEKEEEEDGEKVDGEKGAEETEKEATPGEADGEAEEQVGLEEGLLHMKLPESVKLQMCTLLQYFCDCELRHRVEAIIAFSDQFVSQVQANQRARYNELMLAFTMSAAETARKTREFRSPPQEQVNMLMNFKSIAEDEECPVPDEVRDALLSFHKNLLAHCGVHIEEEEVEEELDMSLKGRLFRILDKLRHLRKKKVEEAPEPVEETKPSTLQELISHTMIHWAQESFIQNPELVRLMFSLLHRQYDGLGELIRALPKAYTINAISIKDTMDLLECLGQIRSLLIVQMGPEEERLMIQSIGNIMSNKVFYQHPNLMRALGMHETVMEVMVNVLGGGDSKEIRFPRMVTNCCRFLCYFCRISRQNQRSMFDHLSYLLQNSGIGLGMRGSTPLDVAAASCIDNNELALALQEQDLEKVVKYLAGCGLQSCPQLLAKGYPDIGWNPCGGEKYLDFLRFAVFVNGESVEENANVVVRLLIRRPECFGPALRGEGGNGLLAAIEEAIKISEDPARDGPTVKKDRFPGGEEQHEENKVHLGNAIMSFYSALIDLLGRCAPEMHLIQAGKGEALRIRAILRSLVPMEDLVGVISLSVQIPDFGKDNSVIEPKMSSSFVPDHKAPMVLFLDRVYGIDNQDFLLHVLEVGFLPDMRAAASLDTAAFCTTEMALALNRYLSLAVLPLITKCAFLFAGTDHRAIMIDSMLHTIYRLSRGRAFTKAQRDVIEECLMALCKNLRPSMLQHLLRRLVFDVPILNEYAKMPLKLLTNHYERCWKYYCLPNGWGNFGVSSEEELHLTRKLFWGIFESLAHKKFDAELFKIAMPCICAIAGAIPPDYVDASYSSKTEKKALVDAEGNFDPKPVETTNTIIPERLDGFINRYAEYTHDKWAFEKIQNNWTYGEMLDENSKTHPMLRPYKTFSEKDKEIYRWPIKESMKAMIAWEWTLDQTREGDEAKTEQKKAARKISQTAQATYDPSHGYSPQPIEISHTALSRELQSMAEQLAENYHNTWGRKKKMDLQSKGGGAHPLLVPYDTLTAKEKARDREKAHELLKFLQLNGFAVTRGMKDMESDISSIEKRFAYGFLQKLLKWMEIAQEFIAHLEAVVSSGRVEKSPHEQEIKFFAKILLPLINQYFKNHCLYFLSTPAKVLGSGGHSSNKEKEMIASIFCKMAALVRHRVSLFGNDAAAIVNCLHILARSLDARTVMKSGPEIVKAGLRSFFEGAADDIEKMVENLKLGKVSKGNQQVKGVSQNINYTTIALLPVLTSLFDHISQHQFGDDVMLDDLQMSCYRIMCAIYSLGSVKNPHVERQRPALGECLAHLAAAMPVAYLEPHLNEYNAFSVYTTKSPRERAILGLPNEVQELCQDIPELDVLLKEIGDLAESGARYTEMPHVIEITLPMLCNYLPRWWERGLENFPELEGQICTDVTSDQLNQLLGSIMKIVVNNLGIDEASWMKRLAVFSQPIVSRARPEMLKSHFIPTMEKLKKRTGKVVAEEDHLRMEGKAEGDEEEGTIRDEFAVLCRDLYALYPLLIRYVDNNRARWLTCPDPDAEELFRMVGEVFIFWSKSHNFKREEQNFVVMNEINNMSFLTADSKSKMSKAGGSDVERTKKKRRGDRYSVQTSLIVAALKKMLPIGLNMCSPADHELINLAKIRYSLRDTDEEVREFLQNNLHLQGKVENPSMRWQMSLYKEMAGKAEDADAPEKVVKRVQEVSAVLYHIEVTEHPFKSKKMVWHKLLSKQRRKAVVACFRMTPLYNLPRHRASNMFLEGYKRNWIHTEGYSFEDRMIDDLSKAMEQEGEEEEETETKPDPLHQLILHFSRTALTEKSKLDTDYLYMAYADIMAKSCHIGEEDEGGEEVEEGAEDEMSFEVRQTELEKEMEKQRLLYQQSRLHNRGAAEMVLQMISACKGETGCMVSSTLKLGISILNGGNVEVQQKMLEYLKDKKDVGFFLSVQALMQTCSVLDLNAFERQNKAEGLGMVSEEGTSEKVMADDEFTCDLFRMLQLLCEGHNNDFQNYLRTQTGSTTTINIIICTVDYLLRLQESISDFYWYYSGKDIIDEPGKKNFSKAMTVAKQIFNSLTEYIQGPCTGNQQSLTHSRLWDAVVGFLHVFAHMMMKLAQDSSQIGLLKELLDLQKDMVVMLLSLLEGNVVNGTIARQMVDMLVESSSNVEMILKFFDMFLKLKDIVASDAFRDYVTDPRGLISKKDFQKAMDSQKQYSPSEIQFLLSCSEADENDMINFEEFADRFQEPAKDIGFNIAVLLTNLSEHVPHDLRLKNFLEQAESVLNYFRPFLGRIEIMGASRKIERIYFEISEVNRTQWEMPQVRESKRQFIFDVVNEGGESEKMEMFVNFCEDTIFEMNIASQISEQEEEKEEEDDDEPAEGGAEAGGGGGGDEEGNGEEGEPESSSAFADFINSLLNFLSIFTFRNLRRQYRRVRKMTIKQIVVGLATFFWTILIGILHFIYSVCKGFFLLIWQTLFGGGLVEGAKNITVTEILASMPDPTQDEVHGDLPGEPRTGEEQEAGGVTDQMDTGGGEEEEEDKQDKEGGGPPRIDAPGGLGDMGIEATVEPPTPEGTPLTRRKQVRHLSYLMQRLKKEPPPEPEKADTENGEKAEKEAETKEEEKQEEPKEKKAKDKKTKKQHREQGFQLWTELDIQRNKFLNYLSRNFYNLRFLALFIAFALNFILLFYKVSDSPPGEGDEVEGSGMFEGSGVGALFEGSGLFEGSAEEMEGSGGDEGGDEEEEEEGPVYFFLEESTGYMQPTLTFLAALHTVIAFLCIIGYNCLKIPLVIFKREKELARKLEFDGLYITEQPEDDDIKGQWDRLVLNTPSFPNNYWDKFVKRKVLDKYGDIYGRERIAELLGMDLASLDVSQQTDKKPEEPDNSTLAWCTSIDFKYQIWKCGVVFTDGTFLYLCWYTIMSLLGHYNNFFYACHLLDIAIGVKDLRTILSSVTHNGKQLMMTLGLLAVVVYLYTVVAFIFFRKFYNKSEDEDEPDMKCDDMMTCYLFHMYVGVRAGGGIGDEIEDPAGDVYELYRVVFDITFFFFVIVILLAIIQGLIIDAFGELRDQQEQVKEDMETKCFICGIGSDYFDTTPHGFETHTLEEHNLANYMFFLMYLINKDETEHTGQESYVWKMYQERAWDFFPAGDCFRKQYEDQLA
Format: binding, rainbow trout (Oncorhynchus mykiss)
Conditions: sigmoidal fit of enhanced [3H]Ry binding; PCB 0–20 μM; (−) inactive
Quantity: EC50

Look over these answered cases.
| Compound | Quantity | Value |
| --- | --- | --- |
| Clc1ccc(Cl)c(-c2cc(Cl)ccc2Cl)c1 [PCB 52] | EC50 | 2940 nM |
| Clc1ccc(-c2cc(Cl)c(Cl)c(Cl)c2Cl)c(Cl)c1Cl [PCB 170] | EC50 | > 20000 nM |
| Clc1cc(Cl)c(-c2c(Cl)cc(Cl)c(Cl)c2Cl)cc1Cl [PCB 183] | EC50 | 1820 nM |
| Clc1ccc(Cl)c(-c2c(Cl)c(Cl)cc(Cl)c2Cl)c1 [PCB 151] | EC50 | 2760 nM |

Next compound, please.
Write down EC50 measured for item Clc1cc(Cl)c(-c2cc(Cl)c(Cl)cc2Cl)cc1Cl [PCB 153]
5750 nM
